method: In vivo tumor targeting and biodistribution in nude mice bearing MDA-MB-231 xenografts
Parameters: species or system mouse
conditions: mouse, muscle/bone, total radioactivity; nude mice with MDA-MB-231 xenografts, 2 h p.i., mean ± SD, n = 4-6; read-out: Muscle/bone uptake
Where a SMILES comes first, the peptide text is derived from it. [ ]: non-standard residue; d: D form. The star is where a group is joined. DOTA = O=C(O)CN1CCN(CC(=O)O)CCN(CC(=O)*)CCN(CC(=O)O)CC1; βAla = NCCC(=O)O
property.label: tissue uptake at 2 h (%ID/g)

molecule	readout.units	value
CC[C@H](C)[C@H](NC(=O)[C@H](Cc1ccc(O)cc1)NC(=O)[C@@H](NC(=O)[C@H](CCCNC(=N)N)NC(=O)[C@H](CC(=O)O)NC(=O)CCNC(=O)[C@H](CCCCN)NC(=O)CN1CCN(CC(=O)O)CCN(CC(=O)O)CCN(CC(=O)O)CC1)C(C)C)C(=O)N[C@@H](Cc1c[nH]cn1)C(=O)N1CCC[C@H]1C(=O)N[C@@H](Cc1ccccc1)C(=O)N[C@@H](Cc1c[nH]c2ccccc12)C(=O)N[C@@H](CCCCN)C(=O)N[C@@H](Cc1ccc(O)cc1)C(N)=O [^68Ga-DOTA-AngII peptide, metal not drawn] ({DOTA}-K[βAla]DRVYIHPFWKY-NH2)	%ID/g	0.19
